Could you please report measured BWD (body weight difference vs control) for the items listed next?
system: lymphocytic leukemia P-388; assay: P-388 lymphocytic leukemia test in mice (NCI Protocol 1.200); format: in vivo, CDF1 female mice; details: 25 mg/kg/inj, daily for 5 days
Report the value in g with no unit label.

query: State, in one line, measured BWD (body weight difference vs control) of `CNC(=O)OCc1nc(-c2ccccc2)n(C)c1COC(=O)NC`
result: 0.0

query: State, in one line, measured BWD (body weight difference vs control) of `CSc1nc(COC(=O)NC(C)C)c(COC(=O)NC(C)C)n1-c1ccccc1`
result: 0.6

query: State, in one line, measured BWD (body weight difference vs control) of CNC(=O)OCc1ncn(-c2ccccc2)c1COC(=O)NC [A, reference compound]
result: 0.2

query: State, in one line, measured BWD (body weight difference vs control) of CC(C)NC(=O)OCc1ncn(-c2ccccc2)c1COC(=O)NC(C)C [B, reference compound]
result: -0.1

query: State, in one line, measured BWD (body weight difference vs control) of `CNC(=O)OCc1nc(SC)n(C)c1COC(=O)NC`
result: -1.4

----------
test system: lymphocytic leukemia P-388; assay: P-388 lymphocytic leukemia test in mice (NCI Protocol 1.200); assay type: in vivo, CDF1 female mice; conditions: 100 mg/kg/inj, daily for 5 days, day 5
assayMetric: Tox.Day Surv. (survivors/animals tested)

query: State, in one line, measured Tox.Day Surv. (survivors/animals tested) of `CNC(=O)OCc1nc(SC)n(C)c1COC(=O)NC`
result: 6/6

query: State, in one line, measured Tox.Day Surv. (survivors/animals tested) of `CNC(=O)OCc1nc(-c2ccccc2)n(C)c1COC(=O)NC`
result: 5/5

query: State, in one line, measured Tox.Day Surv. (survivors/animals tested) of `CNC(=O)OCc1nc(SC)n(Cc2ccccc2)c1COC(=O)NC`
result: 6/6

query: State, in one line, measured Tox.Day Surv. (survivors/animals tested) of CNC(=O)OCc1ncn(-c2ccccc2)c1COC(=O)NC [A, reference compound]
result: 5/5

query: State, in one line, measured Tox.Day Surv. (survivors/animals tested) of `CNC(=O)OCc1nc(SC)n(-c2ccccc2)c1COC(=O)NC`
result: 5/5

----------
test system: lymphocytic leukemia P-388; test: P-388 lymphocytic leukemia test in mice (NCI Protocol 1.200); assay type: in vivo, CDF1 female mice; conditions: 50 mg/kg/inj, daily for 5 days, day 5
assayMetric: Tox.Day Surv. (survivors/animals tested)

query: State, in one line, measured Tox.Day Surv. (survivors/animals tested) of `CNC(=O)OCc1nc(SC)n(-c2ccccc2)c1COC(=O)NC`
result: 5/5

query: State, in one line, measured Tox.Day Surv. (survivors/animals tested) of `CNC(=O)OCc1nc(SC)n(Cc2ccccc2)c1COC(=O)NC`
result: 6/6

query: State, in one line, measured Tox.Day Surv. (survivors/animals tested) of `CNC(=O)OCc1nc(-c2ccccc2)n(C)c1COC(=O)NC`
result: 5/5

query: State, in one line, measured Tox.Day Surv. (survivors/animals tested) of CNC(=O)OCc1ncn(-c2ccccc2)c1COC(=O)NC [A, reference compound]
result: 5/5

query: State, in one line, measured Tox.Day Surv. (survivors/animals tested) of `CNC(=O)OCc1nc(SC)n(C)c1COC(=O)NC`
result: 6/6
